Provenance of the data: the supplement of paper PMC12338614

B1: library; numbered along this chain (parent)
chain: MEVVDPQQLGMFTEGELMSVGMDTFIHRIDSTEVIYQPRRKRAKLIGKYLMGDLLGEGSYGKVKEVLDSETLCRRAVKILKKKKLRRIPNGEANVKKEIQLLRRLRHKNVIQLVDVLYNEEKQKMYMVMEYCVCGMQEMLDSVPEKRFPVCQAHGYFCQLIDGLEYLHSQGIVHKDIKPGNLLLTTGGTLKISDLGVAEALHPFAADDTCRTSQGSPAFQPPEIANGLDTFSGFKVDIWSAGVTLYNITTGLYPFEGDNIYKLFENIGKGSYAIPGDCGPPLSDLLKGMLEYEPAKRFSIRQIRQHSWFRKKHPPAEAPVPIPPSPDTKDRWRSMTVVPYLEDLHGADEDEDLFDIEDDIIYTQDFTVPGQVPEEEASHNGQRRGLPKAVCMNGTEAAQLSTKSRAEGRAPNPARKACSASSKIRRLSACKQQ

Variants of: B1
ASSAY OVERVIEW: STK11 functional score (HeLa growth suppression), rescaled enrichment; synonymous median = 1, nonsense median = 0 (normalised score)
PARTICULARS: with HeLa; variant type: missense
VALUE TYPE: STK11 functional score

Input: Look up and state reported STK11 functional score for Y131W
Output: 0.739

Input: Specify STK11 functional score for L386C and stop.
Output: 1.31

Input: Report measured STK11 functional score; entry is I79W
Output: -0.0803

Input: Please look at this variant and report its STK11 functional score: V320W
Output: 0.717

Input: For the variant E199V , report STK11 functional score.
Output: 1.49

Input: Give recorded STK11 functional score. L353H
Output: 1.4

Input: State, in one line, measured STK11 functional score of L195R
Output: 0.0408

Input: Check the records and state STK11 functional score for G370R
Output: 1.16

Input: Quickly give me recorded STK11 functional score for C73W
Output: 0.426

Input: Entry T367F needs its STK11 functional score filled in; supply it.
Output: 1.36

Input: Give a short answer stating reported STK11 functional score for Y49S .
Output: 1

Input: Look up and state reported STK11 functional score for N259C
Output: 1.12

Input: Entry M129R needs its STK11 functional score filled in; supply it.
Output: 1.13

Input: Return STK11 functional score for the following variant: S378Q
Output: 0.786

Input: Given E407Q , respond with its STK11 functional score.
Output: 0.809

Input: Let me know recorded STK11 functional score for L55G , thanks.
Output: 1.53

Input: Return value of STK11 functional score for input R147F , no commentary.
Output: 0.668

Input: Quote STK11 functional score reported for A241S please.
Output: 0.863

Input: Answer with the recorded STK11 functional score for the variant listed here: R39A
Output: 1.12

Input: Give the reported value of STK11 functional score for this record: P369I
Output: 1.21

Input: Provide measured STK11 functional score value, entry: Y292T
Output: 1.68

Input: Specify STK11 functional score for D350S and stop.
Output: 0.53
